Recorded melting point, one value per entry.
parameter: melting point

Cc1nn(-c2ccccc2)c2nc(-c3ccc(Cl)cc3)c(C#N)c(-c3ccccc3O)c12 [Compound 32] = 281 to 282 °C
Cc1nn(-c2ccccc2)c2nc(-c3ccc(C#N)cc3)c(C#N)c(-c3ccccc3O)c12 [Compound 34] = 165 to 166 °C
Cc1nn(-c2ccccc2)c2nc(-c3ccc(F)cc3)c(C#N)c(-c3ccccc3O)c12 [Compound 31] = 234 to 236 °C
CCc1ccc(-c2nc3c(c(C)nn3-c3ccccc3)c(-c3ccccc3C)c2C#N)cc1 [Compound 12] = 203 to 204 °C
CCc1ccc(-c2nc3c(c(C)nn3-c3ccccc3)c(-c3ccccc3I)c2C#N)cc1 [Compound 8] = 205 to 207 °C
Cc1nn(-c2ccccc2)c2nc(-c3ccc([N+](=O)[O-])cc3)c(C#N)c(-c3ccccc3O)c12 [Compound 35] = 257 to 258 °C
Cc1nn(-c2ccccc2)c2nc(-c3ccc(I)cc3)c(C#N)c(-c3ccccc3O)c12 [Compound 33] = 289 to 291 °C
CCc1ccc(-c2nc3c(c(C)nn3-c3ccccc3)c(-c3ccccc3F)c2C#N)cc1 [Compound 11] = 197 to 199 °C
Cc1nn(-c2ccccc2)c2nc(-c3ccc(C(F)(F)F)cc3)c(C#N)c(-c3ccccc3O)c12 [Compound 30] = 254 to 256 °C
CCc1ccc(-c2nc3c(c(C)nn3-c3ccccc3)c(-c3ccccc3C#N)c2C#N)cc1 [Compound 7] = 201 to 203 °C
CCc1ccc(-c2nc3c(c(C)nn3-c3ccccc3)c(-c3ccccc3Br)c2C#N)cc1 [Compound 9] = 208 to 209 °C
CCc1ccc(-c2nc3c(c(C)nn3-c3ccccc3)c(-c3ccccc3C(F)(F)F)c2C#N)cc1 [Compound 15] = 193 to 195 °C
CCc1ccc(-c2nc3c(c(C)nn3-c3ccccc3)c(-c3ccccc3OC)c2C#N)cc1 [Compound 16] = 196 to 198 °C

###

Recorded EC50, one value per entry.
Tested on: HepG2-A16-CD81EGFP cells
testSummary: HepG2 Cytotoxicity Bioluminescence Assay
Type: cell-based
appliedConditions: Homo sapiens, 48 h, mean ± SD of two measurements
parameter: EC50

CCc1ccc(-c2nc3c(c(C)nn3-c3ccccc3)c(-c3ccccc3Cl)c2C#N)cc1 = > 50 µM
CCc1ccc(-c2nc3c(c(C)nn3-c3ccccc3)c(-c3ccccc3OC(F)(F)F)c2C#N)cc1 = > 25 µM

Attribution: patent US11578071B2
